Recorded melting point values for a group of compounds are listed next.

Sample records with melting point:
* COc1ccnc(C(=O)N[C@H]2COC(=O)[C@H](Cc3ccc(C)cc3)[C@@H](OC(=O)C(C)C)[C@H](C)OC2=O)c1O | 175 to 179 °C
* COc1ccnc(C(=O)N[C@H]2COC(=O)[C@H](CCOC(=O)c3c(F)c(F)c(F)c(F)c3F)[C@@H](OC(=O)C(C)C)[C@H](C)OC2=O)c1O | 167 to 168 °C

Alright, here's another compound for you.
Fill in the blank: the reported melting point of "COc1ccnc(C(=O)N[C@H]2COC(=O)[C@H](CCc3ccccc3)[C@@H](OC(=O)C(C)C)[C@H](C)OC2=O)c1O" is ____.
183 to 184 °C

From: patent US9131690B2
